procedureDetails: total protein half-life in vivo (active degradation + dilution); higher = more stable protein
conditionContext: E. coli NCM3722 delta-clpP delta-lon delta-hslV; growth: N-lim chemostat; doubling time 6 h
endpoint: total protein half-life in vivo (h)
Numbers only here, please. The scale is h.

MRVLIVKTSSMGDVLHTLPALTDAQQAIPGIKFDWVVEEGFAQIPSWHAAVERVIPVAIRRWRKAWFSAPIKAERKAFREALQAENYDAVIDAQGLVKSAALVTRLAHGVKHGMDWQTAREPLASLFYNRKHHIAKQQHAVERTRELFAKSLGYSKPQTQGDYAIAQHFLTNLPTDAGEYAVFLHATTRDDKHWPEEHWRELIGLLADSGIRIKLPWGAPHEEERAKRLAEGFAYVEVLPKMSLEGVARVLAGAKFVVSVDTGLSHLTAALDRPNITVYGPTDPGLIGGYGKNQMVCRAPRENLINLNSQAVLEKLSSL = 5.54
MNLQHHFLIAMPALQDPIFRRSVVYICEHNTNGAMGIIVNKPLENLKIEGILEKLKITPEPRDESIRLDKPVMLGGPLAEDRGFILHTPPSNFASSIRISDNTVMTTSRDVLETLGTDKQPSDVLVALGYASWEKGQLEQEILDNAWLTAPADLNILFKTPIADRWREAAKLIGVDILTMPGVAGHA [P0A8W5] = 4.47
MATTQQSGFAPAASPLASTIVQTPDDAIVAGFTSIPSQGDNMPAYHARPKQSDGPLPVVIVVQEIFGVHEHIRDICRRLALEGYLAIAPELYFREGDPNDFADIPTLLSGLVAKVPDSQVLADLDHVASWASRNGGDVHRLMITGFCWGGRITWLYAAHNPQLKAAVAWYGKLTGDKSLNSPKQPVDIATDLNAPILGLYGGQDNSIPQESVETMRQALRAANAKAEIIVYPDAGHAFNADYRPSYHAASAEDGWQRMLEWFKQYGGKKSL = 4.8

Consider the additional sequence presented here.
query: Fill in reported total protein half-life in vivo for this entry: MLINIGRLLMLCVWGFLILNLVHPFPRPLNIFVNVALIFTVLMHGMQLALLKSTLPKDGPQMTTAEKVRIFLFGVFELLAWQKKFKVKK
result: 6.84

----------
# key: entry, value: total protein half-life in vivo
procedureDetails: total protein half-life in vivo (active degradation + dilution); higher = more stable protein
conditionContext: wild type E. coli NCM3722; growth: C-lim chemostat; doubling time 3 h
Give your result in h as a bare value.

Some solved entries appear below for comparison.
MKSVLKVSLAALTLAFAVSSHAADKKLVVATDTAFVPFEFKQGDKYVGFDVDLWAAIAKELKLDYELKPMDFSGIIPALQTKNVDLALAGITITDERKKAIDFSDGYYKSGLLVMVKANNNDVKSVKDLDGKVVAVKSGTGSVDYAKANIKTKDLRQFPNIDNAYMELGTNRADAVLHDTPNILYFIKTAGNGQFKAVGDSLEAQQYGIAFPKGSDELRDKVNGALKTLRENGTYNEIYKKWFGTEPK [P0AEQ3] = 3.38
MSHLKDPTTQYYTGEYPKQKQPTPGIQAKMTPVPDCGEKTYVGSGRLKDRKALVTGGDSGIGRAAAIAYAREGADVAISYLPVEEEDAQDVKKIIEECGRKAVLLPGDLSDEKFARSLVHEAHKALGGLDIMALVAGKQVAIPDIADLTSEQFQKTFAINVFALFWLTQEAIPLLPKGASIITTSSIQAYQPSPHLLDYAATKAAILNYSRGLAKQVAEKGIRVNIVAPGPIWTALQISGGQTQDKIPQFGQQTPMKRAGQPAELAPVYVYLASQESSYVTAEVHGVCGGEHLG [P0AG84] = 3.13
MKTSVRIGAFEIDDGELHGESPGDRTLTIPCKSDPDLCMQLDAWDAETSIPALLNGEHSVLYRTRYDQQSDAWIMRLA = 1.04
MKVLTVFGTRPEAIKMAPLVHALAKDPFFEAKVCVTAQHREMLDQVLKLFSIVPDYDLNIMQPGQGLTEITCRILEGLKPILAEFKPDVVLVHGDTTTTLATSLAAFYQRIPVGHVEAGLRTGDLYSPWPEEANRTLTGHLAMYHFSPTETSRQNLLRENVADSRIFITGNTVIDALLWVRDQVMSSDKLRSELAANYPFIDPDKKMILVTGHRRESFGRGFEEICHALADIATTHQDIQIVYPVHLNPNVREPVNRILGHVKNVILIDPQEYLPFVWLMNHAWLILTDSGGIQEEAPSLGKPVLVMRDTTERPEAVTAGTVRLVGTDKQRIVEEVTRLLKDENEYQAMSRAHNPYGDGQACSRILEALKNNRISL = 3.23

query: Give reported total protein half-life in vivo value for MTEPLKPRIDFDGPLEVDQNPKFRAQQTFDENQAQNFAPATLDEAQEEEGQVEAVMDAALRPKRSLWRKMVMGGLALFGASVVGQGVQWTMNAWQTQDWVALGGCAAGALIIGAGVGSVVTEWRRLWRLRQRAHERDEARDLLHSHGTGKGRAFCEKLAQQAGIDQSHPALQRWYASIHETQNDREVVSLYAHLVQPVLDAQARREISRSAAESTLMIAVSPLALVDMAFIAWRNLRLINRIATLYGIELGYYSRLRLFKLVLLNIAFAGASELVREVGMDWMSQDLAARLSTRAAQGIGAGLLTARLGIKAMELCRPLPWIDDDKPRLGDFRRQLIGQVKETLQKGKTPSEK [P0A8R7]
result: 2.96

query: Let me know recorded total protein half-life in vivo for METVFDALKAMGKATSIELAARLDISREEVLNELWELKKAGFVDKSAYTWRVADNNVQQEQPAQAELPEEITTATVAKISECDLTATIEQRGPQTADELATLFGTTSRKVASTLAMAISKGRLIRVNQGGKFRYCIPGDNLPAEPKAASVSPLWLSASSSACHGVLIITVITPSPTKNSATKMPEN , thanks.
result: 1.42

query: Supply recorded total protein half-life in vivo for MSQIFAYCRISTLDQTTENQRREIESAGFKIKPQQIIEEHISGSAATSERPGFNRLLARLKCGDQLIVTKLDRLGCNAMDIRKTVEQLTETGIRVHCLALGGIDLTSPTGKMMMQVISAVAEFERDLLLERTHSGIVRARGAGKRFGRPPVLNEEQKQAVFERIKSGVSISAIAREFKTSRQTILRAKAKLQTPDI here.
result: 1.59

query: // fetch total protein half-life in vivo given entry MAIRLYKLAVALGVFIVSAPAFSHGHHSHGKPLTEVEQKAANGVFDDANVQNRTLSDWDGVWQSVYPLLQSGKLDPVFQKKADADKTKTFAEIKDYYHKGYATDIEMIGIEDGIVEFHRNNETTSCKYDYDGYKILTYKSGKKGVRYLFECKDPESKAPKYIQFSDHIIAPRKSSHFHIFMGNDSQQSLLNEMENWPTYYPYQLSSEEVVEEMMSH
result: 3.24

query: Please indicate total protein half-life in vivo recorded for MQKVVLATGNVGKVRELASLLSDFGLDIVAQTDLGVDSAEETGLTFIENAILKARHAAKVTALPAIADDSGLAVDVLGGAPGIYSARYSGEDATDQKNLQKLLETMKDVPDDQRQARFHCVLVYLRHAEDPTPLVCHGSWPGVITREPAGTGGFGYDPIFFVPSEGKTAAELTREEKSAISHRGQALKLLLDALRNG
result: 3.16

query: Indicate the recorded total protein half-life in vivo value for this sequence: MTETIKVSESLELHAVAENHVKPLYQLICKNKTWLQQSLNWPQFVQSEEDTRKTVQGNVMLHQRGYAKMFMIFKEDELIGVISFNRIEPLNKTAEIGYWLDESHQGQGIISQALQALIHHYAQSGELRRFVIKCRVDNPQSNQVALRNGFILEGCLKQAEFLNDAYDDVNLYARIIDSQ
result: 3.18

query: Provide only the value of recorded total protein half-life in vivo for MMDNMQTEAQPTRTRILNAAREIFSENGFHSASMKAICKSCAISPGTLYHHFISKEALIQAIILQDQERALARFREPIEGIHFVDYMVESIVSLTHEAFGQRALVVEIMAEGMRNPQVAAMLKNKHMTITEFVAQRMRDAQQKGEISPDINTAMTSRLLLDLTYGVLADIEAEDLAREASFAQGLRAMIGGILTAS [P0ACT6]
result: 3.36

----------
procedureDetails: total protein half-life in vivo (active degradation + dilution); higher = more stable protein
conditionContext: wild type E. coli NCM3722; growth: P-lim chemostat; doubling time 6 h
# total protein half-life in vivo >= 5 h gives met, anything below gives not met

MPSTPEEKKKVLTRVRRIRGQIDALERSLEGDAECRAILQQIAAVRGAANGLMAEVLESHIRETFDRNDCYSREVSQSVDDTIELVRAYLK [P0AAP3] = not met
MAELSDQEMLRYNRQIILRGFDFDGQEALKDSRVLIVGLGGLGCAASQYLASAGVGNLTLLDFDTVSLSNLQRQTLHSDATVGQPKVESARDALTRINPHIAITPVNALLDDAELAALIAEHDLVLDCTDNVAVRNQLNAGCFAAKVPLVSGAAIRMEGQITVFTYQDGEPCYRCLSRLFGENALTCVEAGVMAPLIGVIGSLQAMEAIKMLAGYGKPASGKIVMYDAMTCQFREMKLMRNPGCEVCGQ = met
MKKSTLALVVMGIVASASVQAAEIYNKDGNKLDVYGKVKAMHYMSDNASKDGDQSYIRFGFKGETQINDQLTGYGRWEAEFAGNKAESDTAQQKTRLAFAGLKYKDLGSFDYGRNLGALYDVEAWTDMFPEFGGDSSAQTDNFMTKRASGLATYRNTDFFGVIDGLNLTLQYQGKNENRDVKKQNGDGFGTSLTYDFGGSDFAISGAYTNSDRTNEQNLQSRGTGKRAEAWATGLKYDANNIYLATFYSETRKMTPITGGFANKTQNFEAVAQYQFDFGLRPSLGYVLSKGKDIEGIGDEDLVNYIDVGATYYFNKNMSAFVDYKINQLDSDNKLNINNDDIVAVGMTYQF = met
MKFKTNKLSLNLVLASSLLAASIPAFAVTGDTDQPIHIESDQQSLDMQGNVVTFTGNVIVTQGTIKINADKVVVTRPGGEQGKEVIDGYGKPATFYQMQDNGKPVEGHASQMHYELAKDFVVLTGNAYLQQVDSNIKGDKITYLVKEQKMQAFSDKGKRVTTVLVPSQLQDKNNKGQTPAQKKGN [P0ADV1] = met
MTSPNILLTRIDNRLVHGQVGVTWTSTIGANLLVVVDDVVANDDIQQKLMGITAETYGFGIRFFTIEKTINVIGKAAPHQKIFLICRTPQTVRKLVEGGIDLKDVNVGNMHFSEGKKQISSKVYVDDQDLTDLRFIKQRGVNVFIQDVPGDQKEQIPD = not met

query: Is reported total protein half-life in vivo greater than or equal to 5 h here: MTISELLQYCMAKPGAEQSVHNDWKATQIKVEDVLFAMVKEVENRPAVSLKTSPELAELLRQQHSDVRPSRHLNKAHWSTVYLDGSLPDSQIYYLVDASYQQAVNLLPEEKRKLLVQL [P0AF50]
result: not met

query: Please tell me: is the sequence MKTAYIAKQRQISFVKSHFSRQLEERLGLIEVQAPILSRVGDGTQDNLSGCEKAVQVKVKALPDAQFEVVHSLAKWKRQTLGQHDFSAGEGLYTHMKALRPDEDRLSPLHSVYVDQWDWERVMGDGERQFSTLKSTVEAIWAGIKATEAAVSEEFGLAPFLPDQIHFVHSQELLSRYPDLDAKGRERAIAKDLGAVFLVGIGGKLSDGHRHDVRAPDYDDWSTPSELGHAGLNGDILVWNPVLEDAFELSSMGIRVDADTLKHQLALTGDEDRLELEWHQALLRGEMPQTIGGGIGQSRLTMLLLQLPHIGQVQCGVWPAAVRESVPSLL at or over 5 h in terms of total protein half-life in vivo?
result: not met
